Answer each item with its documented pIC50.
Biological target: human DGKζ (Homo sapiens)
Construct: TVMV protease cleavage site (C); Hexa-His (C); made in house; host or cells: Sf9 insect cells (baculovirus, Bac-to-Bac)
Sequence (Q13574 with tags, fused parts or gaps isoform Q13574-4): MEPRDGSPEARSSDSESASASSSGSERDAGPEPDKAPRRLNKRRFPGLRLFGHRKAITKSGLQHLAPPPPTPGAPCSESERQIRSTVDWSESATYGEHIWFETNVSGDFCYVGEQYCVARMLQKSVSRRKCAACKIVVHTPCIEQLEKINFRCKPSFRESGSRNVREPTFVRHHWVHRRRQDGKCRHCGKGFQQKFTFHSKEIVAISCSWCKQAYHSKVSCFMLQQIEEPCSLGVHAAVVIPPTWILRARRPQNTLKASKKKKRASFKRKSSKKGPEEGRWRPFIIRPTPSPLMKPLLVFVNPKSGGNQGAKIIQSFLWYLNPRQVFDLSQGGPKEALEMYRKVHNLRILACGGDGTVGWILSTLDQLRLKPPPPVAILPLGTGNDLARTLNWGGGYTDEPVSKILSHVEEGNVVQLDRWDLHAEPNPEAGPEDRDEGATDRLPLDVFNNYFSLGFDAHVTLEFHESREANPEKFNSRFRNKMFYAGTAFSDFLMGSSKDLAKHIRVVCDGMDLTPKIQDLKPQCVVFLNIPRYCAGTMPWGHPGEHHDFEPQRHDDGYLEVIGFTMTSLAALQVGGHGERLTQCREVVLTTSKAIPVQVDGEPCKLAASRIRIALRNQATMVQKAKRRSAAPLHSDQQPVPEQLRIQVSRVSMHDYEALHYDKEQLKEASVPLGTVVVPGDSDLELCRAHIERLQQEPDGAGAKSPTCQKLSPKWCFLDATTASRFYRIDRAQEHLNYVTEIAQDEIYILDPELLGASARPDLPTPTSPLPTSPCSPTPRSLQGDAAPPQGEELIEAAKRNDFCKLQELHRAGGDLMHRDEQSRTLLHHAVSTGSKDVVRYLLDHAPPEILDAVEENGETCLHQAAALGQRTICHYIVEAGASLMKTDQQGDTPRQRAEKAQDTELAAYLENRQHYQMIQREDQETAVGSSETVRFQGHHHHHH
Assay: DGKζ LIPGLO assay (extruded liposome substrate), in vitro DGK inhibition
Assay type: biochemical
Conditions: liposome (LIPGLO) assay; read-out: DGKz LIPGLO IC50
When answering, recall that pIC50 equals minus log10 of the concentration in mol/L, and write that number alone.

Inquiry: Consider the compound Cc1ccc(C(c2ccc(C)cc2)N2C[C@@H](C)N(c3cc(=O)n(C)c4ccc(C#N)nc34)C[C@@H]2CO)cc1 [Example 1173] . State its measured pIC50.
Reply text: 6.01

Inquiry: Consider the compound CC[C@H]1CN(C(C)c2ccc(C3CC3)cc2F)[C@H](CC)CN1c1cc(=O)n(C)c2ccc(C#N)nc12 (single isomer, unassigned) [Example 1357] . State its measured pIC50.
Reply text: 7.70

Inquiry: Consider the compound COCC(c1ccc(C(F)(F)F)cn1)N1C[C@H](C)N(c2cc(=O)n(C)c3ccc(C#N)nc23)C[C@H]1C (single isomer, unassigned) [Example 1278] . State its measured pIC50.
Reply text: 6.40
